biological target: Phosphatidylinositol 4,5-bisphosphate 3-kinase catalytic subunit alpha isoform (Homo sapiens); assay: Inhibition of PI3Kalpha (unknown origin) using diC8 PIP2 as substrate at 0.5 uM after 80 mins by ADP-glo assay
Label satisfied when inhibition is at or above 20%; otherwise label not satisfied.

Below are worked cases with known answers.
ITEM_SMILES | ASSIGNED_CATEGORY
N#CCc1ccc(Nc2ncnc3ccc(-c4cccc(O)c4)cc23)cc1 | satisfied
N#CCc1ccc(Nc2ncnc3ccc(-c4ccc5c(c4)OCO5)cc23)cc1 | satisfied

Could you tell me if the measured inhibition of "N#CCc1ccc(Nc2ncnc3ccc(-c4cccc5c4oc4ccccc45)cc23)cc1" reaches 20% or more? not satisfied

// inclusive: inhibition at least 20%? input: "N#CCc1ccc(Nc2ncnc3ccc(-c4cncc5ccccc45)cc23)cc1" satisfied

Check the entry "N#CCc1ccc(Nc2ncnc3ccc(-c4ccc(F)cc4F)cc23)cc1" : does inhibition equal or exceed 20%? not satisfied

Record "N#CCc1ccc(Nc2ncnc3ccc(-c4ccc5c(c4)OCCO5)cc23)cc1" ; criterion: inhibition no lower than 20%. Met? satisfied

Tell me whether inhibition is at least 20% here: "N#CCc1ccc(Nc2ncnc3ccc(-c4ccc5ccccc5c4)cc23)cc1" not satisfied

Reported inhibition reaches at least 20% for "N#CCc1ccc(Nc2ncnc3ccc(-c4cc5ccccc5o4)cc23)cc1" ? satisfied

Hi, just wondering whether "CC(=O)Nc1cccc(-c2ccc3ncnc(Nc4ccc(CC#N)cc4)c3c2)c1" shows inhibition of 20% or higher. not satisfied

Check if inhibition >= 20% (inclusive). Item: "N#CCc1ccc(Nc2ncnc3ccc(-c4ccc5[nH]ccc5c4)cc23)cc1" satisfied

----------
biological target: CYP2D6 (Homo sapiens, UniProt P10635); assay: Inhibition of human CYP2D6 at 10 uM after 10 mins by fluorescence assay; assay type: ADME
Sequence (P10635 whole entry): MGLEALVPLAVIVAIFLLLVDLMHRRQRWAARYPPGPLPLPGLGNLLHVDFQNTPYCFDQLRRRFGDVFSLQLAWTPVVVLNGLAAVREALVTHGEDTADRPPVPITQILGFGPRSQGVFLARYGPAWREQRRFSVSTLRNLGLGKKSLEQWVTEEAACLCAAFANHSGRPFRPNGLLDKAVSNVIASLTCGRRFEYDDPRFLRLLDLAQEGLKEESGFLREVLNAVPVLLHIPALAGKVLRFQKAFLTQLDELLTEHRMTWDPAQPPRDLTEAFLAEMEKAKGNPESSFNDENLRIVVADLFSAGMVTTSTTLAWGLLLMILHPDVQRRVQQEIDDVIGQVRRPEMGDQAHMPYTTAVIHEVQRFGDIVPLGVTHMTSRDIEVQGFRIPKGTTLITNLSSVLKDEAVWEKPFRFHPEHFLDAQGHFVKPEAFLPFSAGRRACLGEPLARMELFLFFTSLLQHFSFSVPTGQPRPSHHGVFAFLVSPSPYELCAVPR
ENDPOINT_NAME: inhibition at 10 min, 10 µM (%)
The answer is to be given in %; state only the numeric part.

ITEM_SMILES | UNIT_STRING | inhibition at 10 min, 10 µM
N#CCc1ccc(Nc2ncnc3ccc(-c4ccc5[nH]ccc5c4)cc23)cc1 | % | 29

Turning now to a further molecule:
Report value only: inhibition at 10 min, 10 µM, CYP2D6 (Homo sapiens, UniProt P10635), "N#CCc1ccc(Nc2ncnc3ccc(-c4cncc5ccccc45)cc23)cc1" -35

----------
organism: Homo sapiens; experiment: Selectivity ratio of IC50 for PI3Kbeta (unknown origin) to IC50 for PI3Kalpha (unknown origin)
ENDPOINT_NAME: Ratio IC50

Some compounds with known Ratio IC50 results, for comparison:
ITEM_SMILES | RESULT
N#CCc1ccc(Nc2ncnc3ccc(-c4ccc5[nH]ccc5c4)cc23)cc1 | > 49.7
N#CCc1ccc(Nc2ncnc3ccc(-c4ccc5c(c4)OCCO5)cc23)cc1 | > 29.2
N#CCc1ccc(Nc2ncnc3ccc(-c4ccncc4)cc23)cc1 | > 14.2
CC(=O)c1ccc(-c2ccc3ncnc(Nc4ccc(CC#N)cc4)c3c2)cc1 | > 37
C=Cc1ccc(-c2ccc3ncnc(Nc4ccc(CC#N)cc4)c3c2)cc1 | 1
N#CCc1ccc(Nc2ncnc3ccc(-c4cccc(O)c4)cc23)cc1 | 5.8
N#CCc1ccc(Nc2ncnc3ccc(-c4cccc([N+](=O)[O-])c4)cc23)cc1 | > 22.2
N#CCc1ccc(Nc2ncnc3ccc(-c4ccccc4)cc23)cc1 | > 21
N#CCc1ccc(Nc2ncnc3ccc(-c4cncc5ccccc45)cc23)cc1 | > 133

Now for a further compound.
Please list Ratio IC50 recorded for the compound "N#CCc1ccc(Nc2ncnc3ccc(-c4ccc5c(c4)OCO5)cc23)cc1" > 31.1

----------
biological target: Phosphatidylinositol 4,5-bisphosphate 3-kinase catalytic subunit alpha isoform (Homo sapiens, UniProt P42336); assay: Inhibition of PI3Kalpha (unknown origin) using diC8 PIP2 as substrate at 0.5 uM after 80 mins by ADP-glo assay
Sequence (P42336 whole entry, canonical isoform): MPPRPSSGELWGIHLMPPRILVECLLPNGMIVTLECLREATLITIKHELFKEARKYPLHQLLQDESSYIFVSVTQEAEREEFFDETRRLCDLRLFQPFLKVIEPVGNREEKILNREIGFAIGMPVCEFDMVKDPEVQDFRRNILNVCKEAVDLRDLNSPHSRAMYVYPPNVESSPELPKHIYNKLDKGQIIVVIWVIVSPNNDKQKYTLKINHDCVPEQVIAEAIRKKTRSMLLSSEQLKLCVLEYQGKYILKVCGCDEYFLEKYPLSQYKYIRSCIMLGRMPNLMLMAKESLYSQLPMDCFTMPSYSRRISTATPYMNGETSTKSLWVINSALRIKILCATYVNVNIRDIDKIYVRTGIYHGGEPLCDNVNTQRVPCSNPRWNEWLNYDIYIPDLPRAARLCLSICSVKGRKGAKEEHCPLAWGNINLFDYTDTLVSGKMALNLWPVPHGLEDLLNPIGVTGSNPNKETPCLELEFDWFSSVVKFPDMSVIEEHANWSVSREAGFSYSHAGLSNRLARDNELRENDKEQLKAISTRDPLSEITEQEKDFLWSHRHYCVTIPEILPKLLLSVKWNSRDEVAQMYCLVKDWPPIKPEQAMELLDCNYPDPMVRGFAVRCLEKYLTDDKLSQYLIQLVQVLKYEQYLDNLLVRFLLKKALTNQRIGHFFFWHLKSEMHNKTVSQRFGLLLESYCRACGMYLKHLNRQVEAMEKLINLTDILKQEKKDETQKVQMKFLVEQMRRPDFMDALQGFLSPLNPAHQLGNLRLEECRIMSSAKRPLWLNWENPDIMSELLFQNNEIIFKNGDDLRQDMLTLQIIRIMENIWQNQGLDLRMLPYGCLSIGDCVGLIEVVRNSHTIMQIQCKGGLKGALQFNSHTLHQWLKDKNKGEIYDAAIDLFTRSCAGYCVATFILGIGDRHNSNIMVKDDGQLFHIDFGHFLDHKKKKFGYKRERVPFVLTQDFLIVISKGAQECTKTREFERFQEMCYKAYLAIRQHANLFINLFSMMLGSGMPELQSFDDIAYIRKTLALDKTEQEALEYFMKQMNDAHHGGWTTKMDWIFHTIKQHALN
ENDPOINT_NAME: inhibition (%)
Give the value, in units of %, as a plain number.

Please review the following examples before continuing.
ITEM_SMILES | ENDPOINT_NAME | NUMBER
N#CCc1ccc(Nc2ncnc3ccc(-c4ccccc4C=O)cc23)cc1 | inhibition | 1.3
N#CCc1ccc(Nc2ncnc3ccc(-c4cccc([N+](=O)[O-])c4)cc23)cc1 | inhibition | 38.1
N#CCc1ccc(Nc2ncnc3ccc(-c4ccc(OCc5ccc(F)cc5)cc4)cc23)cc1 | inhibition | 11
C=Cc1ccc(-c2ccc3ncnc(Nc4ccc(CC#N)cc4)c3c2)cc1 | inhibition | 36.4
N#CCc1ccc(Nc2ncnc3ccc(-c4ccccc4)cc23)cc1 | inhibition | 36.8

Please report inhibition for the following compound: "N#CCc1ccc(Nc2ncnc3ccc(-c4ccncc4)cc23)cc1" 45.6

Dear colleague, please send me the reported inhibition for "CC(=O)c1ccc(-c2ccc3ncnc(Nc4ccc(CC#N)cc4)c3c2)cc1" when you can. 44

# return recorded inhibition for input "N#CCc1ccc(Nc2ncnc3ccc(-c4ccc(-c5ccccc5)cc4F)cc23)cc1" 20.3

Provide one value: measured inhibition of "N#CCc1ccc(Nc2ncnc3ccc(-c4cc5ccccc5s4)cc23)cc1" 2.7

Output measured inhibition for this item: "Cc1ccccc1-c1ccc2ncnc(Nc3ccc(CC#N)cc3)c2c1" 4.1

----------
assay: Cytotoxicity against human HL60 cells assessed as cell growth inhibition after 48 hrs by MTT assay; format: functional; conditions: HL-60, 48 h
ENDPOINT_NAME: GI50

Solved cases (3 shown):
ITEM_SMILES | ENDPOINT_NAME | RESULT
CC(=O)Nc1cccc(-c2ccc3ncnc(Nc4ccc(CC#N)cc4)c3c2)c1 | GI50 | 32 µM
N#CCc1ccc(Nc2ncnc3ccc(-c4ccc5[nH]ccc5c4)cc23)cc1 | GI50 | 18 µM
N#CCc1ccc(Nc2ncnc3ccc(-c4ccncc4)cc23)cc1 | GI50 | 32 µM

Supply GI50 value. Item: "N#CCc1ccc(Nc2ncnc3ccc(-c4ccc5c(c4)OCCO5)cc23)cc1" 21 µM

// Input: "N#CCc1ccc(Nc2ncnc3ccc(-c4cc5ccccc5o4)cc23)cc1" . Output its GI50 only. 17 µM

Give GI50 for "N#CCc1ccc(Nc2ncnc3ccc(-c4ccc(-c5ccccc5)cc4F)cc23)cc1" 16 µM

Indicate the recorded GI50 value for this compound: "N#CCc1ccc(Nc2ncnc3ccc(-c4cccc5c4sc4ccccc45)cc23)cc1" 31 µM

Let me know recorded GI50 for "N#CCc1ccc(Nc2ncnc3ccc(-c4cccc([N+](=O)[O-])c4)cc23)cc1" , thanks. 15 µM

Specify GI50 for "N#CCc1ccc(Nc2ncnc3ccc(-c4ccc5c(c4)OCO5)cc23)cc1" and stop. 27 µM

Check the records and state GI50 for "N#CCc1ccc(Nc2ncnc3ccc(-c4ccc(F)cc4F)cc23)cc1" 7 µM

----------
Each entry below carries its reported GI50 at 48 h.
assay: Cytotoxicity against HGF cells assessed as cell growth inhibition after 48 hrs by MTT assay; format: toxicity, cell-based; settings: human

ITEM_SMILES | RESULT
N#CCc1ccc(Nc2ncnc3ccc(-c4ccc5[nH]ccc5c4)cc23)cc1 | > 50 µM

With those in mind, consider the next molecule.
Provide GI50 at 48 h value for the following molecule: "N#CCc1ccc(Nc2ncnc3ccc(-c4cncc5ccccc45)cc23)cc1" > 50 µM

----------
biological target: Phosphatidylinositol 4,5-bisphosphate 3-kinase catalytic subunit alpha isoform (Homo sapiens); assay: Inhibition of PI3Kalpha (unknown origin)
ENDPOINT_NAME: IC50 (nM)
Give your result in nM as a bare value.

Find the measured IC50 of Nc1nc2cc(-c3ccc4ncc(C(=O)N5CCOCC5)n4c3)ccc2o1 [SERABELISIB] and report it. 15

----------
The following molecules are listed with their measured solubility thermodynamic at 4 h values.
assay: Thermodynamic equilibrium solubility of compound in simulated gastric fluid up to 300 ug after 4 hrs by UV absorbance method; assay type: ADME; settings: read-out: Therm_solubility
Answer as a quantity: numeral, then unit.

Look up and report measured solubility thermodynamic at 4 h for this entry: "N#CCc1ccc(Nc2ncnc3ccc(-c4cncc5ccccc45)cc23)cc1" 0.8 mg/mL

Tell me solubility thermodynamic at 4 h reported for "N#CCc1ccc(Nc2ncnc3ccc(-c4cccc(O)c4)cc23)cc1" 0.125 mg/mL

Give recorded solubility thermodynamic at 4 h. "N#CCc1ccc(Nc2ncnc3ccc(-c4ccc5[nH]ccc5c4)cc23)cc1" 0.08 mg/mL

----------
assay: Thermodynamic equilibrium solubility of compound in PBS up to 300 ug after 4 hrs by UV absorbance method; assay type: physicochemical; details: read-out: Therm_solubility
Reported solubility thermodynamic at 4 h values follow for various compounds
API: value field is a number in µg/mL; no unit string.

For the compound "N#CCc1ccc(Nc2ncnc3ccc(-c4cccc(O)c4)cc23)cc1" , report solubility thermodynamic at 4 h. 5

Query solubility thermodynamic at 4 h for "N#CCc1ccc(Nc2ncnc3ccc(-c4cncc5ccccc45)cc23)cc1" 1

Answer with the recorded solubility thermodynamic at 4 h of "N#CCc1ccc(Nc2ncnc3ccc(-c4ccc5[nH]ccc5c4)cc23)cc1" only. 10
